Threshold -3: log10 vapour pressure (mmHg) strictly smaller gives met, otherwise not met.

Example entries and their recorded answers appear below.
- Compound: "CCCOC(N)=O"
  Answer Label: "not met"
- Compound: "CCOC(=O)C(SP(=S)(OC)OC)c1ccccc1 (stereo not drawn)"
  Answer Label: "met"
- Compound: "Cc1ccco1"
  Answer Label: "not met"

## Task # TODO verify log10 vapour pressure (mmHg) < -3 strictly for this compound: `CC(C)CCCCCCCOC(=O)c1ccccc1C(=O)OCCCCCCCC(C)C`
## Result met

## Task # TODO verify log10 vapour pressure (mmHg) < -3 strictly for this compound: c1ccc(OCC2CO2)cc1 (stereo not drawn)
## Result not met

## Task # TODO verify log10 vapour pressure (mmHg) < -3 strictly for this compound: `CCSC(=O)N(CC(C)C)CC(C)C`
## Result not met

## Task # TODO verify log10 vapour pressure (mmHg) < -3 strictly for this compound: `CCCOC(=O)c1ccccc1`
## Result not met

## Task # TODO verify log10 vapour pressure (mmHg) < -3 strictly for this compound: `CC(C)(C)C1CCCCC1`
## Result not met
